Field: Neutralization IC50. Provide a value for each of the binders that follow.
target: HIV-1 envelope glycoprotein (gp120) of virus 92US727 (HIV-1); test: cell-based or functional assay

Prompt line: What measured Neutralization IC50 goes with 3.1.15-1 (antibody, human IgG1, kappa, V domains shown) VH: QVQLLQSGAAVTKPGASVRVSCEASGYNIRDYFIHWWRQAPGQGLQWVGWINPKTGQPNNPRQFQGRVSLTRHASWDFDTFSFYMDLKALRSDDTAVYFCARQRSDYWDFDVWGSGTQVTVSS VL: DIQMTQSPSSLSARVGDTATITCQANGYLNWYQQRRGKAPKLLIYDGSKLERGVPARFSGRRWGQEYTLTINNLQPEDVATYFCQVYEFFGPGTRLDLKR ?
Response line: > 33 µg/mL

Prompt line: Repeat for the following binder: 2.3.9-1 (antibody, human IgG1, kappa, V domains shown) VH: QVHLSQSGAAVTKPGASVRVSCEASGYNIRDYFIHWWRQAPGQGLQWVGWINPKTGQPNNPRQFQGRVSLTRHASWDFDTFSFYMDLKAVRSDDTAIYFCARQRSDYWDFDVWGSGTQVTVSS VL: DIQMTQSPSSLSARVGDTATITCQANGYLNWYQQRRGKAPKLLIYDGSKLERGVPARFSGRRWGQEYNLTINNLQPEDVATYFCQVYEFFGPGTRLDLKR
Response line: 11.1 µg/mL

Prompt line: Now consider 2.2.18-1 (antibody, human IgG1, kappa, V domains shown) VH: QVHLSQSGAAVTKPGASVRVSCEASGYKIRDHFIHWWRQAPGQGLQWVGWINPKTGQPNNPRQFQGRVSLTRHASWDFDTFSFYMDLKAVRSDDTAIYFCARQRSDYWDFDVWGSGTQVTVSS VL: DIQMTQSPSSLSARVGDRATITCQANGYLNWYQQRRGKAPKLLIYDGSKLERGVPARFSGSRWGQEYHLTISSLQPEDVATYFCQVYEFFGPGTRLDLKR and answer again.
Response line: > 34 µg/mL

Prompt line: Next up: 2.2.15-1 (antibody, human IgG1, kappa, V domains shown) VH: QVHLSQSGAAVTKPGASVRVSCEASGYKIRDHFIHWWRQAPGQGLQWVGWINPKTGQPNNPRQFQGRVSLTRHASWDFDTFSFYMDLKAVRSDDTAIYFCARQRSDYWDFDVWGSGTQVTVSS VL: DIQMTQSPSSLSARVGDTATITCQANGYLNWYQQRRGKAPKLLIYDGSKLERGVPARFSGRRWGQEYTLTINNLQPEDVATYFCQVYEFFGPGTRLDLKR
Response line: > 50 µg/mL

Prompt line: Thanks! And 2.2.17-1 (antibody, human IgG1, kappa, V domains shown) VH: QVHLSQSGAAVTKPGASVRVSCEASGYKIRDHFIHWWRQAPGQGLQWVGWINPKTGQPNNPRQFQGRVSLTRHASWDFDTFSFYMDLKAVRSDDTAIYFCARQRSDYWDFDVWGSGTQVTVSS VL: DIQMTQSPSSLSARVGDTATITCQANGYLNWYQQRRGKAPKLLIYDGSKLERGVPARFSGRRWGQEYHLTINNLQPEDVATYFCQVYEFFGPGTRLDLKR ?
Response line: > 50 µg/mL

Prompt line: Another: 3.1.7-1 (antibody, human IgG1, kappa, V domains shown) VH: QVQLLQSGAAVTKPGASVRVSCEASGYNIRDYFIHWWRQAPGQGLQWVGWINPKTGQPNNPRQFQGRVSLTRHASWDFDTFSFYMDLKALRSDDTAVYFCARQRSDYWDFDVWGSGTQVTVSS VL: DIQMTQSPSSLSARVGDRATITCQANGYLNWYQQRRGKAPKLLIYDGSKLERGVPARFSGSRWGQEYTLTISSLQPEDVATYFCQVYEFFGPGTRLDLKR
Response line: > 50 µg/mL

Prompt line: Then what about the binder 2.2.12-1 (antibody, human IgG1, kappa, V domains shown) VH: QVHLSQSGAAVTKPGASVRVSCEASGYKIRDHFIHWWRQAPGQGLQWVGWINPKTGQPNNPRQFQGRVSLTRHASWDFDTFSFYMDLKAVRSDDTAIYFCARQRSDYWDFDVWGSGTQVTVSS VL: DIQMTQSPSSLSARVGDTATITCQANGYLNWYQQRRGKAPKLLIYDGSKLERGVPARFSGRRWGQEYILTINNLQPEDVATYFCQVYEFFGPGTRLDLKR ?
Response line: > 50 µg/mL

Prompt line: Param item: 2.3.13-1 (antibody, human IgG1, kappa, V domains shown) VH: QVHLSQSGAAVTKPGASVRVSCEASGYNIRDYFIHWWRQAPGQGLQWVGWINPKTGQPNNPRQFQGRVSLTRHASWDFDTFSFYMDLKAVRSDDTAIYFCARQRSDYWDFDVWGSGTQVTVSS VL: DIQMTQSPSSLSARVGDRATITCQANGYLNWYQQRRGKAPKLLIYDGSKLERGVPARFSGSRWGQEYILTISSLQPEDVATYFCQVYEFFGPGTRLDLKR
Response line: > 38 µg/mL

Prompt line: What about this binder? 3.1.17-1 (antibody, human IgG1, kappa, V domains shown) VH: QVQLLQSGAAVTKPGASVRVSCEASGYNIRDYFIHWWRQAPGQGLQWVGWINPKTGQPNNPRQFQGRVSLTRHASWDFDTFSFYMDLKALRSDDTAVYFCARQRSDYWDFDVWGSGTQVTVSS VL: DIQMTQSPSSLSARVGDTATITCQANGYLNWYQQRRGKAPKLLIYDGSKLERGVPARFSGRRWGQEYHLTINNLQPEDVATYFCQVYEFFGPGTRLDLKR
Response line: > 50 µg/mL

Prompt line: Note, next up: 1.1.119-1 (antibody, human IgG1, kappa, V domains shown) VH: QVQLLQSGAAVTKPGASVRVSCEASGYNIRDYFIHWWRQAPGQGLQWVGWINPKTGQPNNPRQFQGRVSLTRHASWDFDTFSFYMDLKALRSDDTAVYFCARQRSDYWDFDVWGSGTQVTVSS VL: DIQMTQSPSSLSASVGDRATITCQANGYLNWYQQRRGKAPKLLIYDGSKLERGVPSRFSGSRWGQEYTLTISSLQPEDIATYFCQVYEFFGPGTRLDLKR
Response line: > 50 µg/mL

Prompt line: What would you report for 2.2.7-1 (antibody, human IgG1, kappa, V domains shown) VH: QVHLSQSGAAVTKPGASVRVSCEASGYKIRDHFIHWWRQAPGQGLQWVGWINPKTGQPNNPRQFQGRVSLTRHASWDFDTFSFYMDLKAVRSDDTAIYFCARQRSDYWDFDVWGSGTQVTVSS VL: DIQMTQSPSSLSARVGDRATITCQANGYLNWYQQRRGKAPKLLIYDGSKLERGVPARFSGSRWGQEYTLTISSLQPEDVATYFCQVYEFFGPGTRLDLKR ?
Response line: > 50 µg/mL

Prompt line: Same thing, different binder: 2.2.13-1 (antibody, human IgG1, kappa, V domains shown) VH: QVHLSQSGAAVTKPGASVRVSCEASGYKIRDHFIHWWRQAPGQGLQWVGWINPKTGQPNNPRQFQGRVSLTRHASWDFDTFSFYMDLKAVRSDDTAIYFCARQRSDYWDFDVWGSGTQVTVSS VL: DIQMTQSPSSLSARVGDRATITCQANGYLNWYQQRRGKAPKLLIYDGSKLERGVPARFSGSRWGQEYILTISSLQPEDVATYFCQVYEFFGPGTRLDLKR
Response line: > 50 µg/mL

Hey, just so you know, these numbers are from patent US20220089698A1.
